Molecular target: MPXV E8L ectodomain, His-tagged recombinant protein (mpox virus (MPXV), isolate MPXV_USA_2022_MA001)
Experiment: SPR; BiaCore T200; […]; 1:1 binding model
Reported metric: koff (s⁻¹)
Give bare numbers, in s⁻¹.

Binder	koff, s⁻¹
Nanobody E8L-08 (VHH) VHH: QVQLVESGGGLVQAGGSLRLSCAASGFIFTNWGMGWYRQAPGKERELVAAITSGSSTNYADSVKGRFTISRDNAKNTVYLQMNSLKPEDTAVYYCAAIRGFSLIYQFFAQYDYWGQGTQVTVSS	0.002
Nanobody E8L-05 (VHH) VHH: QVQLVESGGGLVQAGGSLRLSCAASGRIFDTVEMGWYRQAPGKEREFVASISGGDSTYYADSVKGRFTISRDNAKNTVYLQMNSLKPEDTAVYYCAARSARNRWSIIFYDYWGQGTQVTVSS	0.002
Nanobody E8L-01 (VHH) VHH: QVQLVESGGGLVQAGGSLRLSCAASGRIFINRVMGWYRQAPGKEREFVAGIAQGGSTNYADSVKGRFTISRDNAKNTVYLQMNSLKPEDTAVYYCAAKFWNWHHDHRGYDYWGQGTQVTVSS	0.0029

# context switch: different binder, same koff
Prompt line: Can you share its koff? I mean this binder: Nanobody E8L-06 (VHH) VHH: QVQLVESGGGLVQAGGSLRLSCAASGFIFTSTRMGWYRQAPGKEREFVAGISIGGNTNYADSVKGRFTISRDNAKNTVYLQMNSLKPEDTAVYYCAARYYYFHNHNFAYDYWGQGTQVTVSS
Response line: 0.0105
